Biological target: CDK2 (Homo sapiens)
Construct: endogenous in cells; host or cells: MDA-MB-231
Assay: CDK protein degradation activity (Western blotting), CDK2
Type: cell-based
Conditions: MDA-MB-231 cells, 10 μM, 16 hours, Western blot
reported_metric: Enzyme degradation CDK2 (% remaining) @ 10 μM

Here is how some compounds turned out for Enzyme degradation CDK2 (% remaining) @ 10 μM.
# compound, value_observed
measured = [
    ("O=C1CC[C@H](N2C(=O)c3ccc(N4CC(C(=O)N5CCC(CN6CCN(c7ccc(Nc8ncnc9c8ncn9C8CC(NC(=O)c9cccc(F)n9)C8)cc7)CC6)CC5)C4)cc3C2=O)C(=O)N1 (some centres unmarked) [Compound 466]", "20%"),
    ("O=C1CC[C@H](N2C(=O)c3cc(F)c(N4CCC(CN5CCN(c6ccc(Nc7ncnc8c7ncn8C7CC(NC(=O)c8cccc(F)n8)C7)cc6)CC5)CC4)cc3C2=O)C(=O)N1 (some centres unmarked) [Compound 428]", "10/10/10%"),
    ("Cc1cccc(C(=O)N[C@H]2C[C@@H](n3cnc4c(NCc5cccc(N6CCN(C(=O)CNc7cccc8c7C(=O)N(C7CCC(=O)NC7=O)C8=O)CC6)c5)ncnc43)C2)n1 (some centres unmarked) [Compound 130]", "10%"),
    ("O=C1CC[C@H](n2nnc3ccc(N4CCC(CN5CCN(c6ccc(Nc7ncnc8c7ncn8[C@H]7C[C@@H](NC(=O)c8cccc(C(F)(F)F)n8)C7)cc6)CC5)CC4)cc3c2=O)C(=O)N1 [Compound 424]", "10/10/10%"),
]

Next compound, Enzyme degradation CDK2 (% remaining) @ 10 μM to be filled in.
Please provide the recorded Enzyme degradation CDK2 (% remaining) @ 10 μM for Cc1cccc(C(=O)NC2CC(n3cnc4c(NCc5cccc(N6CCN(CC7CCN(C(=O)CNc8ccc9c(c8)C(=O)N([C@H]8CCC(=O)NC8=O)C9=O)CC7)CC6)c5)ncnc43)C2)n1 (some centres unmarked) [Compound 135] , tested on CDK2 (Homo sapiens).
40%

---

Below is a list of entries, each paired with its recorded Enzyme degradation CDK2 (% remaining) @ 1 μM value.
Molecular target: CDK2 (Homo sapiens)
Construct: endogenous in cells; host or cells: MDA-MB-231
Assay: CDK protein degradation activity (Western blotting), CDK2
Type: cell-based
Details: MDA-MB-231 cells, 1 μM, 16 hours, Western blot
Just the number please, in %, no unit attached.

Here is how some molecules turned out for Enzyme degradation CDK2 (% remaining) @ 1 μM.
# molecule, target_or_test_system, value_observed
rows = [
    ("N#Cc1cccc(C(=O)N[C@H]2C[C@@H](n3cnc4c(Nc5ccc(N6CCN(CC7CCN(c8ccc9c(c8)CN(C8CCC(=O)NC8=O)C9=O)CC7)CC6)cc5)ncnc43)C2)n1 (stereo partly shown)", "CDK2 (Homo sapiens)", 30),
    ("O=C1CC[C@H](n2nnc3ccc(N4CCC(N5CCN(c6ccc(Nc7ncnc8c7ncn8[C@H]7C[C@@H](NC(=O)Cc8ccccc8)C7)cc6)CC5)CC4)cc3c2=O)C(=O)N1", "CDK2 (Homo sapiens)", 50),
    ("O=C1CC[C@H](N2C(=O)c3ccc(N4CC(C(=O)N5CCN(C6CCN(c7ccc(Nc8ncnc9c8ncn9C8CC(NC(=O)Cc9ccccc9)C8)cc7)CC6)CC5)C4)cc3C2=O)C(=O)N1 (stereo partly shown)", "CDK2 (Homo sapiens)", 50),
    ("O=C1CC[C@H](N2C(=O)C=C(N3CCC(C(=O)N4CCC(CN5CCN(c6ccc(Nc7ncnc8c7ncn8[C@H]7C[C@@H](NC(=O)Cc8ccccc8)C7)cc6)CC5)CC4)CC3)C2=O)C(=O)N1", "CDK2 (Homo sapiens)", 20),
    ("O=C1CC[C@@H](c2ccc(OCC(=O)N3CCC4(CC3)CC(N3CCC(c5ccc(Nc6ncnc7c6ncn7C6CC(NC(=O)Cc7ccccc7)C6)cc5)CC3)C4)cc2)C(=O)N1 (stereo partly shown)", "CDK2 (Homo sapiens)", 50),
]

# query: Enzyme degradation CDK2 (% remaining) @ 1 μM of entry Cc1cccc(C(=O)N[C@H]2C[C@@H](n3cnc4c(NCCC5CCN(CC6CCN(C(=O)CCNc7ccc8c(c7)C(=O)N([C@H]7CCC(=O)NC7=O)C8=O)CC6)CC5)ncnc43)C2)n1 (racemic)
70

# query: Enzyme degradation CDK2 (% remaining) @ 1 μM of entry CC(=O)NC1CC(n2cnc3c(NCC4CCN(CC5CCN(c6cccc7c6C(=O)N([C@H]6CCC(=O)NC6=O)C7=O)CC5)CC4)ncnc32)C1 (stereo partly shown)
80

# query: Enzyme degradation CDK2 (% remaining) @ 1 μM of entry O=C1CC[C@H](N2C(=O)c3cccc(NCC(=O)N4CCC(CC(=O)N5CCN(c6ccc(Nc7ncnc8c7ncn8C7CC(NC(=O)Cc8ccccc8)C7)cc6)CC5)CC4)c3C2=O)C(=O)N1 (stereo partly shown)
50

---

Target: CDK9 (Homo sapiens, UniProt P50750)
Construct: endogenous in cells; host or cells: MDA-MB-231
Sequence (P50750 whole entry): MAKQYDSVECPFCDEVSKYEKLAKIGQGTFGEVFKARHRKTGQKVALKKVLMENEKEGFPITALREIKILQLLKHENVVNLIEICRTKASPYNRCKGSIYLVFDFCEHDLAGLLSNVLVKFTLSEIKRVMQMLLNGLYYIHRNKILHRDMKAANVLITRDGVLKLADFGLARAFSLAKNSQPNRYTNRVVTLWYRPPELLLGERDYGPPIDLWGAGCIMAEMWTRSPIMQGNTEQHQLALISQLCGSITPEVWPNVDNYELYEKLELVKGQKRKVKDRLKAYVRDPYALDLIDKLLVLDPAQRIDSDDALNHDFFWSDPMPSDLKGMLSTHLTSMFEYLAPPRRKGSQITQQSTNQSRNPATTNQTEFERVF
Test: CDK protein degradation activity (Western blotting), CDK9
Assay type: cell-based
Details: MDA-MB-231 cells, 10 μM, 16 hours, Western blot
Below is a list of entries, each paired with its recorded Enzyme degradation CDK9 (% remaining) @ 10 μM value.
Just the number please, in %, no unit attached.

Here is how some molecules turned out for Enzyme degradation CDK9 (% remaining) @ 10 μM.
# molecule, quantity_unit, value_observed
measured = [
    ("O=C1CC[C@H](n2nnc3ccc(N4CCC(CN5CCC(CCNc6ncnc7c6ncn7C6CC(NC(=O)c7c(Cl)cccc7Cl)C6)CC5)CC4)cc3c2=O)C(=O)N1 (some centres unmarked)", "%", 10),
    ("O=C(COc1ccc2c(c1)C(=O)N(C1CCC(=O)NC1=O)C2=O)NC[C@H]1CC[C@H](CN2CCN(c3ccc(Nc4ncnc5c4ncn5[C@H]4C[C@@H](NC(=O)Cc5ccccc5)C4)cc3)CC2)CC1 (some centres unmarked)", "%", 0),
    ("O=C1CC[C@H](N2C(=O)c3cccc(NC[C@H]4CC[C@H](CN5CCN(c6ccc(Nc7ncnc8c7ncn8[C@H]7C[C@@H](NC(=O)Cc8ccccc8)C7)cc6)CC5)CC4)c3C2=O)C(=O)N1", "%", 80),
]

Next molecule, Enzyme degradation CDK9 (% remaining) @ 10 μM to be filled in.
# query: Enzyme degradation CDK9 (% remaining) @ 10 μM of entry `O=C1CC[C@H](N2C(=O)c3cc(F)c(N4CCN(CCCC5CCN(c6ccc(Nc7ncnc8c7ncn8[C@H]7C[C@@H](NC(=O)Cc8ccccc8)C7)cc6)CC5)CC4)cc3C2=O)C(=O)N1`
0

---

Target: CDK9 (Homo sapiens, UniProt P50750)
Construct: endogenous in cells; host or cells: MDA-MB-231
Experiment: CDK protein degradation activity (Western blotting), CDK9
Assay type: cell-based
Settings: MDA-MB-231 cells, 1 μM, 16 hours, Western blot
Below is a list of entries, each paired with its recorded Enzyme degradation CDK9 (% remaining) @ 1 μM value.
Just the number please, in %, no unit attached.

# query: Enzyme degradation CDK9 (% remaining) @ 1 μM of entry `COc1ccc(C(=O)N2CC(N3CCC4(CC3)CC(N3CCN(c5ccc(Nc6ncnc7c6ncn7[C@H]6C[C@@H](NC(=O)Cc7ccccc7)C6)cc5)CC3)C4)C2)cc1N1CCC(=O)NC1=O`
20

# query: Enzyme degradation CDK9 (% remaining) @ 1 μM of entry `O=C1CC[C@H](N2C(=O)c3cccc(N4CCC(CCCN5CCN(c6ccc(Nc7ncnc8c7ncn8[C@H]7C[C@@H](NC(=O)Cc8ccccc8)C7)cc6)CC5)CC4)c3C2=O)C(=O)N1`
30

# query: Enzyme degradation CDK9 (% remaining) @ 1 μM of entry O=C1CC[C@H](N2C(=O)c3cccc(N4CCC(CN5CCC(CNc6ncnc7c6ncn7C6CC(NC(=O)c7c(Cl)cccc7Cl)C6)CC5)CC4)c3C2=O)C(=O)N1 (some centres unmarked)
0

---

Below is a list of entries, each paired with its recorded Enzyme degradation CDK2 (% remaining) @ 0.1 μM value.
Target: CDK2 (Homo sapiens, UniProt P24941)
Construct: endogenous in cells; host or cells: MDA-MB-231
Test: CDK protein degradation activity (Western blotting), CDK2
Type: cell-based
Conditions: MDA-MB-231 cells, 0.1 μM, 16 hours, Western blot
Just the number please, in %, no unit attached.

Here is how some molecules turned out for Enzyme degradation CDK2 (% remaining) @ 0.1 μM.
# molecule, value_observed
measured = [
    ("Cc1cccc(C(=O)N[C@H]2C[C@@H](n3cnc4c(NC5CCN(CCC6CCN(c7ccc8c(c7)C(=O)N([C@H]7CCC(=O)NC7=O)C8=O)CC6)CC5)ncnc43)C2)n1", 100),
    ("O=C1CC[C@H](N2C(=O)c3ccc(N4CCC5(CC4)CC(N4CCN(c6ccc(Nc7ncnc8c7ncn8C7CC(NC(=O)c8c(Cl)cccc8Cl)C7)cc6)CC4)C5)cc3C2=O)C(=O)N1 (stereo partly shown)", 10),
    ("O=C1CCC(c2ccc(OCC(=O)N3CC(CN4CCC5(CC4)CC(N4CCN(c6ccc(Nc7ncnc8c7ncn8[C@H]7C[C@@H](NC(=O)Cc8ccccc8)C7)cc6)CC4)C5)C3)cc2)C(=O)N1 (stereo partly shown)", 80),
    ("Cc1cccc(C(=O)N[C@H]2C[C@@H](n3cnc4c(Nc5ccc(N6CCN(CCC7CCN(C(=O)C8CCN(c9ccc%10c(c9)C(=O)N([C@H]9CCC(=O)NC9=O)C%10=O)CC8)CC7)CC6)cc5)ncnc43)C2)n1", 40),
    ("O=C1CC[C@H](N2C(=O)c3ccc(N4CC(C(=O)N5CCC(CN6CCN(c7ccc(Nc8ncnc9c8ncn9C8CC(NC(=O)c9cccc(F)n9)C8)cc7)CC6)CC5)C4)cc3C2=O)C(=O)N1 (stereo partly shown)", 30),
    ("Cc1cccc(C(=O)N[C@H]2C[C@@H](n3cnc4c(NC5CCN(CCCN6CCN(C(=O)CNc7cccc8c7C(=O)N([C@H]7CCC(=O)NC7=O)C8=O)CC6)CC5)ncnc43)C2)n1", 40),
    ("Cc1cccc(C(=O)N[C@H]2C[C@@H](n3cnc4c(NCc5ccc(OCC6CCN(C(=O)COc7ccc8c(c7)C(=O)N([C@H]7CCC(=O)NC7=O)C8=O)CC6)cc5)ncnc43)C2)n1", 70),
    ("O=C1CC[C@@H](c2cccc(OCC(=O)N3CCC(CN4CCC(c5ccc(Nc6ncnc7c6ncn7C6CC(NC(=O)Cc7ccccc7)C6)cc5)CC4)CC3)c2)C(=O)N1 (stereo partly shown)", 10),
]

Please provide the recorded Enzyme degradation CDK2 (% remaining) @ 0.1 μM for O=C(CNc1ccc2c(c1)C(=O)N(C1CCC(=O)NC1=O)C2=O)NC[C@H]1CC[C@H](CN2CCN(c3ccc(Nc4ncnc5c4ncn5[C@H]4C[C@@H](NC(=O)Cc5ccccc5)C4)cc3)CC2)CC1 (stereo partly shown) , tested on CDK2 (Homo sapiens, UniProt P24941).
80

Sourced from patent US20260125382A1
